study.target: full-length human GLP-1R with an N-terminal FLAG tag, overexpressed on HEK-293T cells (human, UniProt P43220 24-463)
experiment.description: cell-based or functional assay
Starred links: 1 amine or outer side, 2 acyl side, 3 side chain; linkers in the order of their positions; H or OH if unused. Non-standard residues stand in square brackets, D forms with d. Groups on a side chain read outwards from the residue. No end group written: not given here. *: point of attachment. C16 diacid = O=C(O)CCCCCCCCCCCCCCC(=O)*; C15 diacid = O=C(O)CCCCCCCCCCCCCC(=O)*; γGlu = O=C(O)[C@H](CCC(=O)[*:2])N[*:1]; AEEA = NCCOCCOCC(=O)O; Aib = CC(C)(N)C(=O)O
Human GLP1R cAMP HEK293T EC50 values by entry

For orientation, consider the following solved cases.
{"binder": "Me-Y[Aib]EGTFISDYSIALDR[Aib]AQ[Aib]K([2OEG-γGlu-γGlu-γGlu-C15 diacid])FVNWLLAQKG-OH [Compound 201]", "Human GLP1R cAMP HEK293T EC50": "9.12 nM"}
{"binder": "YGEGTFISDYSIAK([AEEA-AEEA-γGlu-C16 diacid])DRIHQQNFVNWLLAQK [Compound 192]", "Human GLP1R cAMP HEK293T EC50": "741 nM"}
{"binder": "Me-Y[Aib]EGTFISDYSIALDR[Aib]KQ[Aib]DFVNWLLAQRG-OH (not fully specified (residues 1, 18)) [Compound 169]", "Human GLP1R cAMP HEK293T EC50": "> 1000 nM"}

Asked: So what's the measured Human GLP1R cAMP HEK293T EC50 for this one? YXEGTFISDYSIALDRXAQXDFVNWLLAQSPSSGAPPPS (N-terminal Me (Me-Tyr1); Aib at 2, 20; Km = Lys(R) at 17, linker printed GS (read as G5 = GGGGG), lipid C15DA (C15 diacid); C-terminal NH2) [Compound 167]
Given back: 41.7 nM

Asked: Also YXEGTFISDYSIALDRXAQXDFVNWLLAQSG (N-terminal Me (Me-Tyr1); Aib at 2, 20; Km = Lys(R) at 17, linker printed GS (read as G5 = GGGGG), lipid C15DA (C15 diacid); C-terminal OH) [Compound 168] ?
Given back: 17.4 nM

Asked: Also Me-Y[Aib]EGTFISDYSI[Aib]LDR[Aib]AQ[Aib]K([AEEA-AEEA-γGlu-γGlu-C15 diacid])FVNWLLAQSPG-OH [Compound 183] ?
Given back: 89.1 nM

Asked: Also Me-Y[Aib]EGTFISDYSIALDR[Aib]AQ[Aib]K([2OEG-γGlu-γGlu-C15 diacid])FVNWLLAQKG-NH2 [Compound 205] ?
Given back: 13.5 nM

Asked: Also Me-Y[Aib]EGTFISDYSIAKDR[Aib]AQ[Aib]DFVNWLLAQRG-OH (not fully specified (residues 1, 14)) [Compound 173] ?
Given back: > 1000 nM

Asked: Also Y[Aib]EGTFISDYSIALDR[Aib]AQ[Aib]K([AEEA-AEEA-γGlu-γGlu-C15 diacid])FVNWLLAQKG-OH (not fully specified (residue 1)) [Compound 188] ?
Given back: 22.9 nM
